Target: T1, N1 binding to cell surface expressed hJ1 (Homo sapiens, UniProt P78504)
T1 construct: cell expressed full length human J1 (hJ1; HEK293 transfectants); expressed in transfected cells; host or cells: HEK293
T1 sequence (P78504 34-1218): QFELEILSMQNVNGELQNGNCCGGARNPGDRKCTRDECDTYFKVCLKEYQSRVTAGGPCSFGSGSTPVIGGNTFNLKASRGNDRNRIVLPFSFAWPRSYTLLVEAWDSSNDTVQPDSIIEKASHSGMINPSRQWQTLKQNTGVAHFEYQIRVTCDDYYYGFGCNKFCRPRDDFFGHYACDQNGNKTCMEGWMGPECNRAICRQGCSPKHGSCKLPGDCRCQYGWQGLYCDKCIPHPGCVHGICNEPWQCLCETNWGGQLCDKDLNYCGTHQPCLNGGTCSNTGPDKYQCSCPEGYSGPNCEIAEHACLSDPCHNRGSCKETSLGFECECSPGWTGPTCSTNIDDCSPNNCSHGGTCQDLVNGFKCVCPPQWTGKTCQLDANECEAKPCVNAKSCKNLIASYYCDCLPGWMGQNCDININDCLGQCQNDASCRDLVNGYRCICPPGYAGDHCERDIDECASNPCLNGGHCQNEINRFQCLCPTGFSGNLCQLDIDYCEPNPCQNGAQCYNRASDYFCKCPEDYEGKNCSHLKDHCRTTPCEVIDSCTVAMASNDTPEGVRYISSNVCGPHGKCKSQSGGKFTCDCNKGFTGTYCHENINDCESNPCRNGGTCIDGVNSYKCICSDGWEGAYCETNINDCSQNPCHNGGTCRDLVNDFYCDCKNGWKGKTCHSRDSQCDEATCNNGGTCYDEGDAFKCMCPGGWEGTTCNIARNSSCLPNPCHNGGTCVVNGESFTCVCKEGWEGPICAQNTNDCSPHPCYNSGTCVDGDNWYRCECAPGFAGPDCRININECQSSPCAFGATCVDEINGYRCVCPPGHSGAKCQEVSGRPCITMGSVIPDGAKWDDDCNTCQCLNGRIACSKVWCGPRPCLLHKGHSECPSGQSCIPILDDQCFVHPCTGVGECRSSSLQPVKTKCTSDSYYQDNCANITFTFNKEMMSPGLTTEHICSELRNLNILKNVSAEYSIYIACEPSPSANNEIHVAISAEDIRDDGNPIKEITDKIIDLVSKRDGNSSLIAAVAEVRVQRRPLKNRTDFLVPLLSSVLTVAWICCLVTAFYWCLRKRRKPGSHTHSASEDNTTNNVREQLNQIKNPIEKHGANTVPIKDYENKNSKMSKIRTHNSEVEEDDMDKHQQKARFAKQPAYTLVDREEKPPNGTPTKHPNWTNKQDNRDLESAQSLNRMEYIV
Assay: Notch binding blocking assay (FACS): N1 EGF11-13 beads staining human J1-expressing cells
Settings: final antibody concentration 0.6 μg/ml
attribute.measured: Blocking of Notch1 binding to cell surface Jagged 1

1. J1-183D variant 11: humanised/de-immunised J1-183D: J1-183D_VL_3 + J1-183D_VH_3 (antibody, V domains shown) VH: QVQLVQSGAELKKPGASVKVSCKVSGYAFTDYAIHWVRQAPGQGLEWMGIINTYYGDSKYAQKFQGRVTMTVDTSTSTAYMELSSLRSEDTAVYYCARGYDGFAYWGQGTLVTVSSASTKGP VL: DIQMTQSPSSLSASVGDRVTITCRTSENIYSYLTWYQQKPGKAPKLLIYNAKILDSGVPSRFSGSGSGTDFTLTISSLQPEDFATYYCQHHYDIPWTFGGGTKLEIKRT = + (Complete blocking)
2. J1-183D variant 9: humanised/de-immunised J1-183D: J1-183D_VL_3 + J1-183D_VH_1 (antibody, V domains shown) VH: QVQLVQSGAELKKPGASVKVSCKVSGYAFTDYAIHWIRQAPGQGLEWMGIINTYYGDSKYNQKFKDRVTMTVDKSTSTAYMELSSLRSEDTAVYYCARGYDGFAYWGQGTLVTVSSASTKGP VL: DIQMTQSPSSLSASVGDRVTITCRTSENIYSYLTWYQQKPGKAPKLLIYNAKILDSGVPSRFSGSGSGTDFTLTISSLQPEDFATYYCQHHYDIPWTFGGGTKLEIKRT = + (Complete blocking)
3. J1-183D variant 2: humanised/de-immunised J1-183D: J1-183D_VL_1 + J1-183D_VH_2 (antibody, V domains shown) VH: QVQLVQSGAELKKPGASVKVSCKVSGYAFTDYAIHWIRQAPGQGLEWMGIINTYYGDSKYAQKFQGRVTMTVDTSTSTAYMELSSLRSEDTAVYYCARGYDGFAYWGQGTLVTVSSASTKGP VL: DIQMTQSPSSLSASVGDRVTITCRTSENIYSYLTWYQQKPGKAPKLLVYNAKILAAGVPSRFSGSGSGTDFTLTISSLQPEDFATYYCQHHYDIPWTFGGGTKLEIKRT = + (Complete blocking)
